tested on: 786-0 renal; experiment: NCI-60 one-dose screen, 48 h (100 = growth as untreated, 0 = no growth, -100 = all killed); conditions: 10 µM unless noted
The panel holds about 83,000 compounds, 20% with a hit somewhere; the sample as a whole holds those more often.
reported endpoint: growth (%)
Reply numerically in %, unit not repeated.

growth reading for `O=c1oc2ccccc2cc1-c1csc(N=Nc2c(O)[nH]c3ccc(Cl)cc23)n1` : 86.3

growth reading for CN(C)c1nc(NCCNS(=O)(=O)c2ccc(C3=Nc4c(N)nc(N)nc4NC(c4ccc(C(F)(F)F)cc4)C3)cc2)nc(Nc2ccc(F)cc2)n1 (centres undefined) : -35.4

growth reading for `Cc1ccc(/C=C/c2n(Cc3ccc4ccccc4c3)c3ccccc3[n+]2Cc2ccc3ccccc3c2)cc1` : -51.6

growth reading for CCCS(=O)(=O)N1CCCC(C(=O)Nc2nc3ccc(NC(=O)c4ccc(F)c(OC)c4F)cc3s2)C1 (centres undefined) : 37.6
